Biological target: T1, human VEGF (hVEGF) (human, UniProt P15692 181-395)
T1 construct: also called VEGF-A
T1 sequence: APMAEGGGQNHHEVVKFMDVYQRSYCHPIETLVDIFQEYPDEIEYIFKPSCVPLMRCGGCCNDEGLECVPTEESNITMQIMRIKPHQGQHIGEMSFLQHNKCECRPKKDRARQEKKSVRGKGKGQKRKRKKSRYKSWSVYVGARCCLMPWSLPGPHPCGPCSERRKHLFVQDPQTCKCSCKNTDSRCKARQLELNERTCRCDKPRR
Assay: SPR single-cycle
The binders listed here are annotated with their kon.

{"BINDER": "G6.31 LC-Q37A (Fab, V domains shown, Fab) VH: EVQLVESGGGLVQPGGSLRLSCAASGFTISDYWIHWVRQAPGKGLEWVAGITPAGGYTYYADSVKGRFTISADTSKNTAYLQMNSLRAEDTAVYYCARFVFFLPYAMDYWGQGTLVTVSS VL: DIQMTQSPSSLSASVGDRVTITCRASQDVSTAVAWYAQKPGKAPKLLIYSASFLYSGVPSRFSGSGSGTDFTLTISSLQPEDFATYYCQQGYGNPFTFGQGTKVEIK", "kon [M⁻¹ s⁻¹]": 603000}
{"BINDER": "G6.31 HC-S70H (Fab, name in Kabat numbering, V domains shown, Fab) VH: EVQLVESGGGLVQPGGSLRLSCAASGFTISDYWIHWVRQAPGKGLEWVAGITPAGGYTYYADSVKGRFTIHADTSKNTAYLQMNSLRAEDTAVYYCARFVFFLPYAMDYWGQGTLVTVSS VL: DIQMTQSPSSLSASVGDRVTITCRASQDVSTAVAWYQQKPGKAPKLLIYSASFLYSGVPSRFSGSGSGTDFTLTISSLQPEDFATYYCQQGYGNPFTFGQGTKVEIK", "kon [M⁻¹ s⁻¹]": 658000}
{"BINDER": "G6.31 HC-Q81S (Fab, name in Kabat numbering, V domains shown, Fab) VH: EVQLVESGGGLVQPGGSLRLSCAASGFTISDYWIHWVRQAPGKGLEWVAGITPAGGYTYYADSVKGRFTISADTSKNTAYLSMNSLRAEDTAVYYCARFVFFLPYAMDYWGQGTLVTVSS VL: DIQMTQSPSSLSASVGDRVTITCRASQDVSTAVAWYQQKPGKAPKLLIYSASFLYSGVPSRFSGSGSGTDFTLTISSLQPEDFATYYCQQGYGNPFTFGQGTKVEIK", "kon [M⁻¹ s⁻¹]": "1.07e+06"}
{"BINDER": "G6.31 HC-Y58Q (Fab, name in Kabat numbering, V domains shown, Fab) VH: EVQLVESGGGLVQPGGSLRLSCAASGFTISDYWIHWVRQAPGKGLEWVAGITPAGGYTQYADSVKGRFTISADTSKNTAYLQMNSLRAEDTAVYYCARFVFFLPYAMDYWGQGTLVTVSS VL: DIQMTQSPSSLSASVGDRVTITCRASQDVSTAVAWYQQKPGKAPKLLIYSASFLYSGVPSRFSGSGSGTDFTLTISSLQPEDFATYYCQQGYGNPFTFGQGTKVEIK", "kon [M⁻¹ s⁻¹]": 352000}
{"BINDER": "G6.31 HC-Q81W (Fab, name in Kabat numbering, V domains shown, Fab) VH: EVQLVESGGGLVQPGGSLRLSCAASGFTISDYWIHWVRQAPGKGLEWVAGITPAGGYTYYADSVKGRFTISADTSKNTAYLWMNSLRAEDTAVYYCARFVFFLPYAMDYWGQGTLVTVSS VL: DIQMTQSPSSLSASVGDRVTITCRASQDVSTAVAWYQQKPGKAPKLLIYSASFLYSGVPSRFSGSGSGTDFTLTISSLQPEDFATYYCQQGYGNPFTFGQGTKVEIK", "kon [M⁻¹ s⁻¹]": "1.2e+06"}
